Entries and their glycan array binding signal (z-score) values follow.
Target: Gal(b1-3)GlcNAc(b1-2)Man(a1-3)[Gal(b1-3)GlcNAc(b1-2)Man(a1-6)]Man(b1-4)GlcNAc(b1-4)GlcNAc
Experiment: glycan array binding signal (z-score within array); higher = stronger binding
Conditions: glycan notation: IUPAC condensed, linker removed
Many of the other results were omitted from the sample, so the strongest signals are more common in it than they were.
# output: bare number, no unit

{"BINDER": "CLEC9a (Mus musculus), Q8BRU4 (protein) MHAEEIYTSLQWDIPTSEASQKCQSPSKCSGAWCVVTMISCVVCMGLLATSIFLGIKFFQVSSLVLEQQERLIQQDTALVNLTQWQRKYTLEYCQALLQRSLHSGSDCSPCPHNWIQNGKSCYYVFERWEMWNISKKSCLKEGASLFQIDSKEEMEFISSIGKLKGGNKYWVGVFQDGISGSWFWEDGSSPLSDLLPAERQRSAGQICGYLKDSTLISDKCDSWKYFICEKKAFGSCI", "glycan array binding signal (z-score)": 1.97}

Let's switch to this binder now.
Data request: Requested read-out: glycan array binding signal (z-score). Entry: SLLPI (Homo sapiens), Q8IXA5 (protein) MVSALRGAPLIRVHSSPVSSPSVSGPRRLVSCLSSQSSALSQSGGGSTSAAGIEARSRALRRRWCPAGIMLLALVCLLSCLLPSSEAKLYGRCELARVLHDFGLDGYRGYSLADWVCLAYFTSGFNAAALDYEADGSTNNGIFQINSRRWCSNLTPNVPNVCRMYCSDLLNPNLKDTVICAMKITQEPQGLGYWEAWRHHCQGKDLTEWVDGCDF
Data returned: 0.777

Origin of measurements: the supplement of paper PMC8728848
